Here, each record is paired with measured cytotoxicity at 10 µM data.
test.protocol: Toxicity liver stage against HepG2, at 10uM
Type: cell-based
Set-up: test concentration 10 uM, cell line HepG2-A16-CD81EGFP
test.conditions: human, HepG2-A16-CD81EGFP cells; read-out: INHIBITION
measured.quantity: cytotoxicity at 10 µM (%)

* CN(C)c1cc(CNC(=O)c2cc(Cl)ccn2)ccn1 | -15
* N#Cc1nccnc1NC1CCN(c2c(F)cccc2F)C1 (centres undefined) | 5.2
* CN1CCC(N[C@@H]2CO[C@H](CNC(=O)Nc3ccccc3)[C@H]2O)CC1 | 6.31
* CCN1CCN(c2ccc(C(=O)NC(C)c3ccncc3)cc2)CC1 (centres undefined) | -16.6
* Cc1cc(C(=O)NCc2cc(C)oc2C)no1 | -9.98
* COc1cc(N2CCc3ncnc(-c4ccoc4)c3CC2)ncn1 | 14.9
* N#CCCN(Cc1ccco1)C(=O)Cc1ccc(-n2cnnn2)cc1 | 3.23
* O=C(CC1CC1)N1CCn2cc(Cn3cccn3)nc2C1 | -78.5
* CCC1CCCN(C(=O)Cc2csc(-c3ncccn3)n2)C1 (centres undefined) | -5.15
* Cc1ncc2c(n1)CN(c1ncnc3[nH]ccc13)CC2 | -8.92
* CNS(=O)(=O)Cc1cccc(CNc2ccc(C#N)cn2)c1 | -11.2
* NCc1n[nH]c(=O)n1-c1cccc(Cl)c1Cl | -0.994
* O=C(Cn1cccn1)NCC(c1cccs1)N1CCCC1 (centres undefined) | 11.9
* Cc1nc(C(=O)N2CCCC2c2c(C)nn(C)c2C)ccc1C#N (centres undefined) | -6.16
* Cc1ccc(N2CCC3(CN(CCO)CCC3(F)F)C2)nn1 (centres undefined) | 7.28
* CCC(=O)N1CCC(c2nc(O)c3c(n2)CN(C2CCCCC2)CC3)C1 (centres undefined) | -15.7
* CCc1cccc(-n2nnc(C(=O)O)c2-c2ccncc2)c1 | 7.77
* CC(C)CS(=O)(=O)N1C[C@@H]2C[C@H](C(=O)N3CCOCC3)[C@H](C1)O2 | -2.71
* CN1CC(C(=O)NC2(c3ccc(Cl)cc3)CCOCC2)CC1=O (centres undefined) | 13.8
* COCCC(=O)N1Cc2nc3c(C)c(-c4cccs4)nn3c(O)c2C1 | -1.19
* COc1c(C2CCCN2CC(=O)Nc2cc(C)no2)c(C)nn1C (centres undefined) | -2.77
* O=C1CCOCCN1Cc1ccc(Cl)c(Cl)c1 | 3.3
* Cc1[nH]c2c(F)cccc2c1CC(=O)N1CCCC(N)CC1 (centres undefined) | 3.26
* O=S1(=O)CCC(c2nnc(-c3cnc4onc(C5CC5)c4c3)o2)C1 (centres undefined) | 5.89

* * *

test.protocol: Toxicity liver stage against HepG2, at 10uM
Assay type: cell-based
Design: test concentration 10 uM, cell line HepG2-A16-CD81EGFP
test.conditions: human, HepG2-A16-CD81EGFP cells; read-out: INHIBITION
measured.quantity: cytotoxicity at 10 µM

- O=C(NCC1CCS(=O)(=O)C1)c1ccc2cccc(Cl)c2n1 (stereo unspecified): -10.1%
- Cc1nccn1-c1cccc(N2CCC(OCC3CCCCO3)CC2)n1 (stereo unspecified): 11.3%
- CS(=O)(=O)CCC(=O)N1CCC(c2ccc(F)c(F)c2)CC1: 7.09%
- Cc1cc(C(F)(F)F)nc(CNc2cc(C)nc3cc(C)nn23)n1: 9.29%
- Nc1nc2c(c(NC3CCCC3)n1)CCN(C(=O)C1CCOC1)CC2 (stereo unspecified): -129%
- COC1(CNC(=O)c2ccc(F)c(F)c2)CCSC1 (stereo unspecified): -2.11%
